Recorded values, source ChEMBL document CHEMBL1201862.

- Tested on: COLO 205
- procedureDetails: NCI tumour cell line growth inhibition, 48 h
Active and inactive are the calls of the source. Rule as the data show it: active = GI50 up to about 1.1 µM and inactive = higher.
reportedProperty: GI50

// fetch GI50 given entry COc1ccc(C2CCc3c(cnc4nc(N)nc(N)c34)C2)cc1 (centres undefined)
> 100 µM (inactive)

Provide one value: measured GI50 of CN1CCC(CN2c3ccccc3Sc3ccccc32)CC1
14.1 µM (inactive)

Give the measured GI50 for Cc1ccc(O)c(-c2csc(NCN3CCN(CNc4nc(-c5cc(C)ccc5O)cs4)CC3)n2)c1
> 100 µM (inactive)

Identify GI50 associated with the compound N#Cc1cccc(N2C(=O)c3c(c(-c4ccccc4)c(-c4ccc(Sc5ccc(-c6c(-c7ccccc7)c7c(c(-c8ccccc8)c6-c6ccccc6)C(=O)N(c6cccc(C#N)c6)C7=O)cc5)cc4)c(-c4ccccc4)c3-c3ccccc3)C2=O)c1
> 100 µM (inactive)

Quote GI50 reported for CCN(CC)c1cc2c3c(c1)CCCN3CCC2 please.
> 10 µM (inactive)

State its GI50 for this compound: COC(=O)c1ccccc1NC(=O)C(=O)NNC(=O)c1ccncc1
> 100 µM (inactive)

Output measured GI50 for this item: O=C1C=CC(=O)c2c1ccc1c3ccccc3n(Cc3ccccc3)c21
18.9 µM (inactive)

Annotate the compound COC1C2C[C@@H](O)CCC2C(C(=O)OCCl)C[C@H]1O (some centres undefined) with its measured GI50.
> 100 µM (inactive)

Determine from records and report GI50 for FC(F)(F)c1ccc2c(c1)nc(-c1ccccc1)n2CC1CCCN2CCCCC12 (centres undefined)
13 µM (inactive)

* * *

- Test system: KM12
- procedureDetails: NCI tumour cell line growth inhibition, 48 h
The source made the active and inactive calls. Rule as the data show it: active = GI50 up to about 1.1 µM and inactive = higher.
Respond only with the outcome that fits, drawn from active, inactive

Hey, what did the test say about CC1OC(O)CC(OC(=O)c2ccccc2)C1OC(=O)c1ccccc1 (stereo unspecified) ?
inactive

Short answer needed: outcome of this test for O=[N+]([O-])c1cccc2nc3ccccc3c(NCCCN3CCOCC3)c12 ?
active

# fetch the recorded call for O=[N+]([O-])c1ccc(C2=Nc3ccccc3SC(c3ccccc3)C2)cc1 (stereo unspecified) here
inactive

Status in this test for CC(C)(C)OC(=O)N(CCCCNC(=O)C(F)(F)F)CCCNC(=O)C(F)(F)F ?
inactive

Which outcome was entered for the compound N[C@@H](CSCSC[C@H](N)C(=O)O)C(=O)O in this test?
inactive

Which result was noted for this compound in the test: COC(=O)C(=O)C(CC(=O)Nc1ccc(C)cc1)C(=O)OC (stereo unspecified)
inactive

* * *

- Tested on: HOP-62
- procedureDetails: NCI tumour cell line growth inhibition, 48 h
Calls of active or inactive are those of the source. Rule as the data show it: active = GI50 up to about 1.1 µM and inactive = higher.
Please state which outcome applies, choosing from active, inactive

Could you check what this test reported for CN1CCC(CN2c3ccccc3Sc3ccccc32)CC1 ?
inactive

// param item: Cc1ccc2c(c1)C(=C(C#N)C#N)CCCS2(=O)=O ; yields the recorded call
inactive

Called result for CCCN(C(=O)c1ccccc1)C(C#N)c1ccc(C(C#N)N(CCC)C(=O)c2ccccc2)cc1 (stereo not given)
inactive

Which outcome was assigned to N=c1c2c(=S)n(-c3ccccc3)c(=S)n(-c3ccccc3)c2nc(SCCCN2CCN(c3cccc(Cl)c3)CC2)n1-c1ccccc1 in this test?
inactive

Record lookup: outcome of this test for CC(=O)OC1CCCn2c1nc1c2C(=O)C(C)=C(N2CC2)C1=O (stereo not given) ?
active

What is the recorded call for this molecule in the test? COC(=O)[C@H](Cc1c[nH]c2ccccc12)NP(=O)(O)OCC1C=CC(n2cc(C)c(=O)[nH]c2=O)O1 (stereo not given in full)
inactive

Record lookup: outcome of this test for COc1ccc(/C=C2/C[N+](C)(C)C/C(=C/c3ccc(OC)cc3)C2=O)cc1 ?
inactive

Name the outcome recorded for O=S(=O)(O)c1ccc2cccc(/N=N\c3c(O)ccc4ccccc34)c2c1 in the assay.
inactive

Per the records of this test, what outcome belongs to O=c1[nH]nc2ccccc2c1Cl ?
inactive

What was the test verdict on CS/C(C)=N/OC(=O)NCCCCNc1ccc(N=[N+]=[N-])cc1 ?
inactive

* * *

- Test system: NCI-H226
- procedureDetails: NCI tumour cell line growth inhibition, 48 h
Activity calls are given as the source filed them. Cut-off read from the data, not from the text of the source: active = GI50 up to about 1.1 µM and inactive = higher.
reportedProperty: GI50

# return GI50 for NC(=O)N1N=C2c3ccccc3SC[C@H]2[C@@H]1c1ccccc1 , test system: NCI-H226
22.2 µM (inactive)

Under NCI-H226, report GI50 for BrC12c3ccccc3Sc3ccccc3C1(Br)c1ccccc12 (centres undefined)
16.7 µM (inactive)

Please indicate recorded GI50 of COc1ccc(OC)c(Cc2cnc3nc(N)nc(N)c3c2C)c1 [PIRITREXIM ISETHIONATE] measured with NCI-H226.
2.19 µM (inactive)

Specify GI50 for O=C(O)C(Cc1ccc(O)cn1)NC(=O)C(F)(F)F (centres undefined) , system NCI-H226.
> 100 µM (inactive)

* * *

- Tested on: SF-539
- procedureDetails: NCI tumour cell line growth inhibition, 48 h
Activity calls are given as the source filed them. No stated cut-off is given here; in the data, active = GI50 up to about 1.1 µM and inactive = higher.
Bench note: report the call from 1.0 for active, 0.0 for inactive

Identify the outcome logged in this assay for the molecule shown: C=C(C)[C@@H]1CC=C(CO)CC1
0.0

Per the records of this test, what outcome belongs to CC(=O)Nc1cc(C(=O)Nc2cc(C(=O)Nc3cc(C(=O)Nc4cc(C(=O)Nc5cc(C(=O)NCCC(=O)NCCCN(C)C)n(C)c5)n(C)c4)n(C)c3)n(C)c2)n(C)c1 ?
0.0

Could you please tell me the result logged for N[C@@H](CSCSC[C@H](N)C(=O)O)C(=O)O in this assay?
0.0

Entry CCN1C(=O)C(=Cc2ccc(-c3ccccc3)cc2)C(=O)N(CC)C1=S : call = ?
0.0

What classification did NC(=O)CC(N)c1nnn[nH]1 (configuration not stated) end up with in this test?
0.0

Call for entry NC(=O)c1ccccc1NC(=O)C(=O)C(C(=O)c1ccc2ccccc2c1)C1OC(=O)c2ccccc21 (configuration not stated) :
0.0

Given COC(=O)C1(Cc2ccccc2)Cc2cc3c(cc2C1)CCC3 , state the outcome it received in this test.
0.0

Hi, do you know how Nc1ccc2c(c1)Oc1c(F)c(F)cc3c(=O)c(C(=O)O)cn-2c13 came out in this test?
0.0

What did the test return for C1CSCCCSCCCSCCCSCCCSC1 ?
0.0

Identify the outcome logged in this assay for the molecule shown: [O-][n+]1cc(SCc2ccccc2)ncc1SCc1ccccc1
0.0

Lab log entry: c1ccc2cc(CNCCCCNCCCNCc3ccc4ccccc4c3)ccc2c1 — outcome as called in the assay?
0.0

Answer briefly: the call reported for Cc1c(Cl)ccc2c1NC(=O)C2(O)C1Cc2ccccc2C1=O (configuration not stated) in this assay.
0.0

Dear colleague, could you share the recorded outcome for Cc1c2cccc-2ccc2c3ccccc3n(C(=O)c3ccc(Cl)cc3)c12 when you have a moment?
0.0

Called result for COc1cc2nc(-c3cccs3)nc(Cl)c2cc1OC
0.0

Recorded test call requested for O=C1C=Cc2ncccc2C1=O
0.0

Would you mind telling me which call this test gave COc1ccc(OC)c(Cc2cnc3nc(N)nc(N)c3c2C)c1 [PIRITREXIM ISETHIONATE] ?
1.0

// outcome(item) with item = CC(C)=CCC/C(=C/CC/C(C)=C/CCc1ccoc1)C(=O)O
0.0

Hey, what did the test say about NS(=O)(=O)c1ccc(/N=N/c2ccc(O)c(O)c2)cc1 ?
0.0

State the result this test recorded for COc1ccc(/C=N\O[Si](C)(C)C(C)(C)C)cc1O[Si](C)(C)C(C)(C)C .
0.0

Would you mind telling me which call this test gave CC(C)=C1C2CC3(C)CCC2(C)CCC13.CC1=CCC2C3(C)CCC2(C(C)C)C1C3 (configuration not stated) ?
0.0

For this molecule, state the assay outcome: C/C(=N\O)C1CC(CC(=O)O)C1(C)C (configuration not stated)
0.0

Per the assay record, what outcome was assigned to O=C1Nc2ccccc2/C1=C\c1c(-c2ccccc2)nc2n1CCS2 ?
0.0

* * *

- Test system: LOX IMVI
- procedureDetails: NCI tumour cell line growth inhibition, 48 h
Activity calls are given as the source filed them. Rule as the data show it: active = GI50 up to about 1.1 µM and inactive = higher.
Parameter call: string, one of 1 = active, 0 = inactive

What did this assay record as the result for CCOC(=O)NC(=O)c1cn(CC(=O)NCC(=O)NCC(=O)N2CCN(CCn3c(C)nc(C(N)=O)c3N)CC2)c(=O)[nH]c1=O ?
0

Outcome? Cc1cc2c(cc1Cl)SC(NS(=O)(=O)c1ccc(Cl)cc1)=NS2(=O)=O
0

How was COc1ccc(C(OCC2OC(n3cc(C)c(=O)[nH]c3=O)CC2n2cc(Cn3cc(I)c(=O)[nH]c3=O)nn2)(c2ccccc2)c2ccccc2)cc1 (configuration not stated) classified in this test?
0

Check the results log: what was the call for N#Cc1cccc(N2C(=O)c3c(c(-c4ccccc4)c(-c4ccc(Sc5ccc(-c6c(-c7ccccc7)c7c(c(-c8ccccc8)c6-c6ccccc6)C(=O)N(c6cccc(C#N)c6)C7=O)cc5)cc4)c(-c4ccccc4)c3-c3ccccc3)C2=O)c1 ?
0

Identify the outcome logged in this assay for the compound shown: CCCCCCCCCCCCCCCC(=O)Nc1ccn(C2CC(OP(=O)(O)OCC3OC(n4cc(F)c(=O)[nH]c4=O)CC3OC(C)=O)C(CO)O2)c(=O)n1 (configuration not stated)
0

// return assay outcome for CC(=O)O[C@H]1C(=O)[C@@]2(C)[C@H]([C@H](OC(=O)c3ccccc3)[C@]3(O)C[C@H](OC(=O)[C@H](O)[C@@H](NC(=O)c4ccccc4)c4ccc5ccccc5c4)C(C)=C1C3(C)C)[C@]1(OC(C)=O)CO[C@@H]1C[C@@H]2O
1

Returns: the outcome recorded for CC(C)=Cc1cc(C(=O)NCCNC(=O)c2cc(C=C(C)C)nc(NC#N)n2)nc(NC#N)n1 in this assay.
0

# outcome recorded in this test, key = Cc1c(Cl)ccc2c1NC(=O)C2(O)C1Cc2ccccc2C1=O (configuration not stated)
0

Called result for COc1ccc2oc(=N)c(C(N)=S)cc2c1
0

Returns: the outcome recorded for c1ccc2c(CNCCCCCCNCc3cccc4ccccc34)cccc2c1 in this assay.
0

Could you check what this test reported for Cc1nc(N)c(N2CCN(C#N)CC2)c(O)n1 ?
0

So what was the verdict on Nc1cc2[nH]c(=O)c3cc(Cl)ccc3c2cc1Cl in this test?
0

Test call for this compound, please: COc1cc2nc(-c3ccccc3)cc(O)c2c(OC)c1OC
0

Test call for this compound, please: CCc1nc2ccc(NCCN(C)C)c3c(=O)c4ccccc4n1c23
1

Check the results log: what was the call for CC(C)C1(C)N=C(C(F)(F)F)c2cc(C(=O)C(F)(F)F)c3ccccc3c2N1 (configuration not stated) ?
0

Check the results log: what was the call for CCCCCCCC(=O)N/N=C/c1ccc(Sc2nccn2C)c([N+](=O)[O-])c1 ?
0

Write down the call the test reported for this compound. Item: O=C1C2=C(CCCC2)Nc2cccc3ncn1c23
0
